- EXPERIMENTAL SYSTEM: UniProtKB G1SFD9
- PROTOCOL TEXT: In vitro Acyl coenzyme A:cholesterol acyltransferase inhibitory activity (IAI) was determined by measuring the incorporation of [1-14C]oleolyl-CoA into cholesterol esters by intestinal microsomes isolated from cholesterol-fed rabbits
- Set-up: species or system Intestine
PROPERTY MEASURED: pIC50
In textbook form, pIC50 equals minus log to base ten of the concentration in mol/L.

Example cases with answers are listed next.
MOLECULE	EXPERIMENTAL SYSTEM	pIC50
O=C(NC(=O)Oc1c(-c2ccccc2)cccc1-c1ccccc1)Oc1c(-c2ccccc2)cccc1-c1ccccc1	UniProtKB G1SFD9	6.64
CCCCCCCCCCCCCCCCCCOC(=O)NC(=O)Oc1c(C(C)C)cccc1C(C)C	UniProtKB G1SFD9	6.00
CCCCCCCCCCCOC(=O)NC(=O)Oc1c(C(C)C)cccc1C(C)C	UniProtKB G1SFD9	6.85
CCCCCCCCC(C)OC(=O)NC(=O)Oc1c(C(C)C)cccc1C(C)C (racemic)	UniProtKB G1SFD9	6.57
CCCCC[C@H](C)OC(=O)NC(=O)Oc1c(C(C)C)cccc1C(C)C	UniProtKB G1SFD9	7.01
CCCCCCCCOC(=O)NC(=O)Oc1c(C(C)C)cccc1C(C)C	UniProtKB G1SFD9	6.60
CCCCCCCCCCC(C)OC(=O)NC(=O)Oc1c(C(C)C)cccc1C(C)C (racemic)	UniProtKB G1SFD9	7.31
CCCCC[C@@H](C)OC(=O)NC(=O)Oc1c(C(C)C)cccc1C(C)C	UniProtKB G1SFD9	6.89
CC(C)c1cccc(C(C)C)c1NC(=O)NC(=O)N(Cc1ccccc1)Cc1ccccc1	UniProtKB G1SFD9	5.98

# pIC50 of "CCCCCCCCSC(=O)NC(=O)Oc1c(C(C)C)cccc1C(C)C" = 6.80

* * *

- EXPERIMENTAL SYSTEM: O-acyltransferase (Oryctolagus cuniculus, UniProt G1SFD9)
- Sequence (G1SFD9 1-524): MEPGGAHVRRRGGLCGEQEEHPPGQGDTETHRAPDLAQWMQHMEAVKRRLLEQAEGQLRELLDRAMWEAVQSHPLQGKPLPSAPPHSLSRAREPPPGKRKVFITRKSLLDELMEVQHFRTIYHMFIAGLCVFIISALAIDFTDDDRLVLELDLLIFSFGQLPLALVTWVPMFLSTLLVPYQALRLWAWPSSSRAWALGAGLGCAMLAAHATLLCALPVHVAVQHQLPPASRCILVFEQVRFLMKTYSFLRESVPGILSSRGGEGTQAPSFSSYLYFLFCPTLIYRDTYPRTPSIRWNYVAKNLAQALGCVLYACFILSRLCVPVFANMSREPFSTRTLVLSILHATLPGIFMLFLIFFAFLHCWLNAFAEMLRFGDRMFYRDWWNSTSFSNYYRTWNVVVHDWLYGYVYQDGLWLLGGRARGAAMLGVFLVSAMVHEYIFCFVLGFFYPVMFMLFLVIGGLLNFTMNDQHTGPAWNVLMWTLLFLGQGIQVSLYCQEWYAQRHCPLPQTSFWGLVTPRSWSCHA
- PROTOCOL TEXT: In vitro Acyl coenzyme A:cholesterol acyltransferase inhibitory activity (IAI) was determined by measuring the incorporation of [1-14C]oleolyl-CoA into cholesterol esters by intestinal microsomes isolated from cholesterol-fed rabbits
PROPERTY MEASURED: log10 of IC50 (log10 of the value in nM)
Answers are given as log10 of IC50 in nM.

Example cases with answers are listed next.
COMPOUND	log10 of IC50
CCCCCCCCCCCCOC(=O)NC(=O)Oc1c(C(C)C)cccc1C(C)C	1.32
CCCCCCCCCCC(C)(C)COC(=O)NC(=O)Oc1c(C(C)C)cccc1C(C)C	1.30
CC(C)c1cccc(C(C)C)c1NC(=O)N(C)C(=O)N(c1ccccc1)c1ccccc1	2.64
CCCCCCOC(=O)NC(=O)Oc1c(C(C)C)cccc1C(C)C	1.72
CCCCCCCCCCCCC(C)SC(=O)NC(=O)Oc1c(C(C)C)cccc1C(C)C (racemic)	0.90

# log10 of IC50 of "CC(C)c1cccc(C(C)C)c1OC(=O)NC(=O)OC(c1ccccc1)c1ccccc1" = 2.54

# log10 of IC50 of "CCCCCCCCCCCCCOC(=O)NC(=O)Oc1c(C(C)C)cccc1C(C)C" = 0.95

# log10 of IC50 of "CC(C)c1cccc(C(C)C)c1NC(=O)NC(=O)OC(c1ccccc1)c1ccccc1" = 3.89

* * *

Entries and their IC50
- EXPERIMENTAL SYSTEM: O-acyltransferase (Oryctolagus cuniculus, UniProt G1SFD9)
- PROTOCOL TEXT: In vitro Acyl coenzyme A:cholesterol acyltransferase inhibitory activity (IAI) was determined by measuring the incorporation of [1-14C]oleolyl-CoA into cholesterol esters by intestinal microsomes isolated from cholesterol-fed rabbits
- Set-up: species or system Intestine
The figure you give is taken to be in nM; do not add the unit.

COMPOUND	PROPERTY MEASURED	SCALE UNIT	NUMERIC VALUE
CCCCCCCCC(C)OC(=O)NC(=O)Nc1c(C(C)C)cccc1C(C)C (centres undefined)	IC50	nM	750
CCCCCC(C)OC(=O)NC(=O)Nc1c(C(C)C)cccc1C(C)C (centres undefined)	IC50	nM	1060

# context switch: different compound, same IC50
Entry "CCCCCCCCCCCSC(=O)NC(=O)Oc1c(C(C)C)cccc1C(C)C" , tested on O-acyltransferase (Oryctolagus cuniculus, UniProt G1SFD9), has a reported IC50 of 210

* * *

- EXPERIMENTAL SYSTEM: UniProt G1SFD9
- PROTOCOL TEXT: In vitro Acyl coenzyme A:cholesterol acyltransferase inhibitory activity (IAI) was determined by measuring the incorporation of [1-14C]oleolyl-CoA into cholesterol esters by intestinal microsomes isolated from cholesterol-fed rabbits
pIC50: −log10 of the molar value.
Classify as follows. Reported pIC50 greater than or equal to 7: condition met. Reported pIC50 below: condition not met.

COMPOUND	CLASS LABEL
CCCCCCCCCCCCSC(=O)NC(=O)Sc1c(C(C)C)cccc1C(C)C	condition not met

Would you say "Cc1cccc(C)c1SC(=O)NC(=O)Sc1c(C)cccc1C" shows pIC50 at minimum 7?
condition not met

Would you say "CC(C)c1cccc(C(C)C)c1OC(=O)NC(=O)Sc1ccccc1" shows pIC50 at minimum 7?
condition not met

* * *

Entries and their IC50
- EXPERIMENTAL SYSTEM: UniProtKB G1SFD9
- PROTOCOL TEXT: In vitro Acyl coenzyme A:cholesterol acyltransferase inhibitory activity (IAI) was determined by measuring the incorporation of [1-14C]oleolyl-CoA into cholesterol esters by intestinal microsomes isolated from cholesterol-fed rabbits
The figure you give is taken to be in nM; do not add the unit.

COMPOUND	PROPERTY MEASURED	SCALE UNIT	NUMERIC VALUE
CCCCCCCCCCCCC(C)OC(=O)NC(=O)Oc1c(C(C)C)cccc1C(C)C (racemic)	IC50	nM	17
CCCCCC(C)OC(=O)NC(=O)Oc1c(C(C)C)cccc1C(C)C (racemic)	IC50	nM	102
CCCCCCCCCCCCCCOC(=O)NC(=O)Oc1c(C(C)C)cccc1C(C)C	IC50	nM	10

# IC50 of CCCCCCCC(C)OC(=O)NC(=O)Oc1c(C(C)C)cccc1C(C)C (racemic) = 97

# IC50 of "CCCCCCCCCCCCC(C)(C)OC(=O)NC(=O)Oc1c(C(C)C)cccc1C(C)C" = 21

# IC50 of "CC(C)c1cccc(C(C)C)c1NC(=O)NC(=O)N(Cc1ccccc1)C(C)C" = 750

# IC50 of "CCCCCCCCCCCCSC(=O)NC(=O)Oc1c(OC)cc(OC)cc1OC" = 250

# IC50 of "CC(C)c1cccc(C(C)C)c1OC(=O)NC(=O)N(c1ccccc1)c1ccccc1" = 170

# IC50 of "CC(C)c1cccc(C(C)C)c1OC(=O)NC(=O)SCCN1CCOCC1" = 900

# IC50 of "CC(C)c1cccc(C(C)C)c1OC(=O)NC(=O)SCCCc1ccccc1" = 69

# IC50 of "CC(C)c1cccc(C(C)C)c1NC(=O)NC(=O)Oc1c(C(C)C)cccc1C(C)C" = 980

# IC50 of CCCCCCCCCCCCC(C)OC(=O)NC(=O)Nc1c(C(C)C)cccc1C(C)C (stereo not drawn) = 46

Value source: ChEMBL document CHEMBL1127594
